Molecular target: MAP3K2 (human)
Assay: radiometric filter-binding kinase assay, Kinase HotSpot
Conditions: compound 0.5 µM; ATP 10 µM
Measurement Kind: residual activity (%)

>>> value_measured("Oc1ccc(Nc2nc(-c3ccc(Cl)cc3)cs2)cc1")
92.1
>>> value_measured("COc1cc2ncc(-c3ccccc3)nc2cc1OC")
92.5
>>> value_measured("Nc1nnc2[nH]c3ccccc3nc1-2")
92.6
>>> value_measured("Cc1nc2cc3nc(-c4cccs4)cnc3cc2n1C")
90.2
>>> value_measured("CC(C)[C@H](CO)Nc1nc(Nc2cc(N)cc(Cl)c2)c2ncn(C(C)C)c2n1")
83.1
>>> value_measured("O=C(Nc1cccc(Nc2cc(Nc3cccc(C(F)(F)F)c3)ncn2)c1)C1CC1")
91.8
>>> value_measured("O=C(CCCc1ccc(-c2ccccc2F)cc1)Nc1ccc(O)cc1")
89.1
>>> value_measured("COc1ccc(OC)c2c(=S)c3ccccc3[nH]c12")
101
>>> value_measured("Cn1cnc2cc3c(Nc4cccc(Br)c4)ncnc3cc21")
97.6
>>> value_measured("Cn1sc(=O)n(Cc2ccccc2)c1=O")
94.7

* * *

Target: UniProt Q9Y6M4
Sequence (Q9Y6M4 whole entry, looked up): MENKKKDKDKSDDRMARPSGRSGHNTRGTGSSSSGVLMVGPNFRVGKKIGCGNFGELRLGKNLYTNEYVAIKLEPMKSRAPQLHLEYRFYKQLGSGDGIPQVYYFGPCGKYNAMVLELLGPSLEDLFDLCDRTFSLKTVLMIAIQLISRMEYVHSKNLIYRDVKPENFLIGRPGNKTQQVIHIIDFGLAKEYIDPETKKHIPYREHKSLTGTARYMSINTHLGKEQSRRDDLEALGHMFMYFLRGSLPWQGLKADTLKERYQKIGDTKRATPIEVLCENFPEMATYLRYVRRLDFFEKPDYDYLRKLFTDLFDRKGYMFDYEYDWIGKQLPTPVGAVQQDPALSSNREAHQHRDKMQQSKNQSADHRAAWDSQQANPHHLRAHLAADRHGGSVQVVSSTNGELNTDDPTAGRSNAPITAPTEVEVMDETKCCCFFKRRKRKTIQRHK
Experiment: radiometric filter-binding kinase assay, Kinase HotSpot
Conditions: compound 0.5 µM; ATP 10 µM
Measurement Kind: residual activity

>>> value_measured("O=C(Nc1cccc(Nc2cc(Nc3cccc(C(F)(F)F)c3)ncn2)c1)C1CC1")
"107%"
>>> value_measured("COc1cc2ncnc(N3CCN(C(=O)Nc4ccc(Oc5ccccc5)cc4)CC3)c2cc1OC")
"82.7%"
>>> value_measured("O=C1Cc2c([nH]c3ccc(Br)cc23)-c2ccccc2N1")
"103%"
>>> value_measured("COc1ccc(CNC(=O)Nc2ncc([N+](=O)[O-])s2)cc1")
"90.4%"
>>> value_measured("CC(=O)O/N=C1\\C(=C2\\C(=O)Nc3cc(Br)ccc32)Nc2ccccc21")
"101%"
>>> value_measured("Cc1nc2cc3nc(-c4cccs4)cnc3cc2n1C")
"96.1%"

* * *

residual activity by entry:
Molecular target: NTRK1 (human) (UniProt P04629)
Sequence (P04629 whole entry, looked up): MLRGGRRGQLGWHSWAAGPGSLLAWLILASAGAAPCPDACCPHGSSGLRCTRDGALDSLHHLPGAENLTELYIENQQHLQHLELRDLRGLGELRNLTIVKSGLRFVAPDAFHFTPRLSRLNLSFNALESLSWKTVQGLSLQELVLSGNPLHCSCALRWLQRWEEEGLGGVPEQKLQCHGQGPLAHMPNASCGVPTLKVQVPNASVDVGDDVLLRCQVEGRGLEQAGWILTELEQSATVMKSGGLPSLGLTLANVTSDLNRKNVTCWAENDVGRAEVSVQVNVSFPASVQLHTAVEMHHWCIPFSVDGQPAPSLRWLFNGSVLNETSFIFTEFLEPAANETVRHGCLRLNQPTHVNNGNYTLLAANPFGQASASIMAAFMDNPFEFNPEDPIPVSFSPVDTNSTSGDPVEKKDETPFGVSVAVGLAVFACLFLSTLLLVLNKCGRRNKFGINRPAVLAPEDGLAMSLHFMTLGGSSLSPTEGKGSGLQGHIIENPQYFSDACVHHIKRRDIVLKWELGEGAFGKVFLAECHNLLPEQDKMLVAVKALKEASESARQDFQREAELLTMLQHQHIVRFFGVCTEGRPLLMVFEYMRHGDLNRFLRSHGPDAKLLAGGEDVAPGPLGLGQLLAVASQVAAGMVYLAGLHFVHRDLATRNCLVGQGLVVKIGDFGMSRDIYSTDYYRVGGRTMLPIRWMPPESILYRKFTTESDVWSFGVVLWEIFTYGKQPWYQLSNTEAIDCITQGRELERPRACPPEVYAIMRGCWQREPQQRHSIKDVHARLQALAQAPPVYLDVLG
Experiment: radiometric filter-binding kinase assay, Kinase HotSpot
Details: compound 0.5 µM; ATP 10 µM
Measurement Kind: residual activity (%)

>>> value_measured("Cn1sc(=O)n(Cc2ccccc2)c1=O")
99.3
>>> value_measured("O=C1Nc2ccccc2/C1=C1\\Nc2ccccc2\\C1=N/O")
12.4
>>> value_measured("Nc1nnc2[nH]c3ccccc3nc1-2")
88.3
>>> value_measured("O=C1NC(=O)/C(=C\\c2ccc3nccnc3c2)S1")
94.2
>>> value_measured("Cn1cnc2cc3c(Nc4cccc(Br)c4)ncnc3cc21")
90.8
>>> value_measured("Nc1nccc(-c2c(-c3ccc(F)cc3)ncn2C2CCNCC2)n1")
100
>>> value_measured("Cc1nc2cc3nc(-c4cccs4)cnc3cc2n1C")
113

* * *

residual activity by entry:
Target: CDK1 CCNB1 (human) (UniProt P06493+P14635)
Sequence (P06493 whole entry, looked up): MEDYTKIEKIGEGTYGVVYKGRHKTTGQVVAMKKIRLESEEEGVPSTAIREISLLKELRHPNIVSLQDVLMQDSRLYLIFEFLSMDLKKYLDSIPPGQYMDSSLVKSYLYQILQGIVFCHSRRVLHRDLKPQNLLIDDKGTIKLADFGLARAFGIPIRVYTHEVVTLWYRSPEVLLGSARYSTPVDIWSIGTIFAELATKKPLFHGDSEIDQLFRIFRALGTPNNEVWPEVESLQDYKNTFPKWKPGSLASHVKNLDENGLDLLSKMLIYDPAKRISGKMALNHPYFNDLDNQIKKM
Sequence (P14635 whole entry, looked up): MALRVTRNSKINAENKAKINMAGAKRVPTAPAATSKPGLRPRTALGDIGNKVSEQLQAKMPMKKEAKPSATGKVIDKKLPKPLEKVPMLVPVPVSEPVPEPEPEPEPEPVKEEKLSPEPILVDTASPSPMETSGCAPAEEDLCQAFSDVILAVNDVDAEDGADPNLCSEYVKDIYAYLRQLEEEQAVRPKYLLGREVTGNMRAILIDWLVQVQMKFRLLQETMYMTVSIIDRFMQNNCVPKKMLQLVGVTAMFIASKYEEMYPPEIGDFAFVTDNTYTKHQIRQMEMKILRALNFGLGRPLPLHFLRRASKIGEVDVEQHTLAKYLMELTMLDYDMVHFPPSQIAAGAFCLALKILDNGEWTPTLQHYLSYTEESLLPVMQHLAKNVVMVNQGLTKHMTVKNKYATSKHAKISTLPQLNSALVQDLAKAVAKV
Test: radiometric filter-binding kinase assay, Kinase HotSpot
Settings: compound 0.5 µM; ATP 10 µM
Measurement Kind: residual activity (%)

>>> value_measured("Cn1cnc2cc3c(Nc4cccc(Br)c4)ncnc3cc21")
97.9
>>> value_measured("COc1cc(OC)c(/C=C2\\C(=O)Nc3ccccc32)c(OC)c1")
83
>>> value_measured("Cc1ccc(NC(=O)c2ccc(CN3CCN(C)CC3)cc2)cc1Nc1nccc(-c2cccnc2)n1")
103
>>> value_measured("O=C(O)/C=C/c1cc(Br)c(Br)c(Br)c1Br")
62.7
>>> value_measured("COc1ccc(OC)c2c(=S)c3ccccc3[nH]c12")
97.8
>>> value_measured("Cc1nc2cc3nc(-c4cccs4)cnc3cc2n1C")
96.7
>>> value_measured("Oc1ccc(Nc2nc(-c3ccc(Cl)cc3)cs2)cc1")
109
>>> value_measured("O=C1NC(=O)C(c2c[nH]c3ccccc23)=C1c1c[nH]c2ccccc12")
96.5
>>> value_measured("Cn1nc2c3c(cccc31)C(=O)c1ccccc1-2")
108

* * *

Molecular target: UniProt:Q9UBS0
Sequence (Q9UBS0 whole entry, looked up): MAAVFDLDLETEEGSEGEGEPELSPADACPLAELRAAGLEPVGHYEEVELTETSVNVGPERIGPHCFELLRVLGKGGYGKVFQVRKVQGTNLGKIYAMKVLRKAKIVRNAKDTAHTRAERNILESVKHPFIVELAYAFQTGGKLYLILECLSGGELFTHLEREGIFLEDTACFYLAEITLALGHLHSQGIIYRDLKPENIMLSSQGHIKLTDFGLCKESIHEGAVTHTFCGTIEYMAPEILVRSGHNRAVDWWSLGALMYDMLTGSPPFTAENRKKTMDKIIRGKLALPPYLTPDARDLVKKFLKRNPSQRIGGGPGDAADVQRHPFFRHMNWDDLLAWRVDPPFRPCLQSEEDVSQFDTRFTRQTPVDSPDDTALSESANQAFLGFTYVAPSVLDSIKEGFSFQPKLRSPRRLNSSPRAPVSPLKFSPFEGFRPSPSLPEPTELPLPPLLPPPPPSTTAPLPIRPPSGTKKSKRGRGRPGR
Assay: radiometric filter-binding kinase assay, Kinase HotSpot
Settings: compound 0.5 µM; ATP 10 µM
residual activity by entry:
Measurement Kind: residual activity (%)

>>> value_measured("O=C1NC(=O)C(c2c[nH]c3ccccc23)=C1c1c[nH]c2ccccc12")
94.6
>>> value_measured("CCN(CC)CCCCN1c2ccccc2Oc2ccc(Cl)cc21")
107
>>> value_measured("Cn1sc(=O)n(Cc2ccccc2)c1=O")
101
>>> value_measured("Cn1cnc2cc3c(Nc4cccc(Br)c4)ncnc3cc21")
96.8
>>> value_measured("O=C(Nc1cccc(Nc2cc(Nc3cccc(C(F)(F)F)c3)ncn2)c1)C1CC1")
103
>>> value_measured("COc1cc2ncnc(N3CCN(C(=O)Nc4ccc(Oc5ccccc5)cc4)CC3)c2cc1OC")
92.4
>>> value_measured("O=C1NC(=O)C(c2cn(CCCO)c3ncccc23)=C1c1cnccn1")
94.7
>>> value_measured("O=C(CCCc1ccc(-c2ccccc2F)cc1)Nc1ccc(O)cc1")
104
>>> value_measured("CC(C)[C@H](CO)Nc1nc(Nc2cc(N)cc(Cl)c2)c2ncn(C(C)C)c2n1")
98.2
>>> value_measured("O=C(O)/C=C/c1cc(Br)c(Br)c(Br)c1Br")
93.8
>>> value_measured("CN(C)C[C@H]1CCn2c(c(C3=C(c4cn(C)c5ccccc45)C(=O)NC3=O)c3ccccc32)C1")
67.6
>>> value_measured("CC(=O)O/N=C1\\C(=C2\\C(=O)Nc3cc(Br)ccc32)Nc2ccccc21")
83.7
>>> value_measured("O=C1Nc2ccccc2/C1=C1\\Nc2ccccc2\\C1=N/O")
107
>>> value_measured("Nc1nnc2[nH]c3ccccc3nc1-2")
102
>>> value_measured("O=C1NC(=O)/C(=C\\c2ccc3nccnc3c2)S1")
94.7
>>> value_measured("CC(C)c1nn(-c2c(Cl)cccc2Cl)c2nc(Cc3ccc(OCCO)cc3)nc(O)c12")
106
>>> value_measured("O=C1Nc2ccccc2/C1=C1/Nc2ccccc2/C1=N\\OCCC(O)CO (stereo not given)")
106
>>> value_measured("Cn1nc2c3c(cccc31)C(=O)c1ccccc1-2")
94.7
>>> value_measured("COc1ccc(OC)c2c(=S)c3ccccc3[nH]c12")
105
>>> value_measured("CCn1cnc2c(Nc3cccc(Cl)c3)nc(N[C@@H]3CCCC[C@@H]3N)nc21")
103

* * *

Target: MST1R (human) (UniProt Q04912)
Sequence (Q04912 whole entry, looked up): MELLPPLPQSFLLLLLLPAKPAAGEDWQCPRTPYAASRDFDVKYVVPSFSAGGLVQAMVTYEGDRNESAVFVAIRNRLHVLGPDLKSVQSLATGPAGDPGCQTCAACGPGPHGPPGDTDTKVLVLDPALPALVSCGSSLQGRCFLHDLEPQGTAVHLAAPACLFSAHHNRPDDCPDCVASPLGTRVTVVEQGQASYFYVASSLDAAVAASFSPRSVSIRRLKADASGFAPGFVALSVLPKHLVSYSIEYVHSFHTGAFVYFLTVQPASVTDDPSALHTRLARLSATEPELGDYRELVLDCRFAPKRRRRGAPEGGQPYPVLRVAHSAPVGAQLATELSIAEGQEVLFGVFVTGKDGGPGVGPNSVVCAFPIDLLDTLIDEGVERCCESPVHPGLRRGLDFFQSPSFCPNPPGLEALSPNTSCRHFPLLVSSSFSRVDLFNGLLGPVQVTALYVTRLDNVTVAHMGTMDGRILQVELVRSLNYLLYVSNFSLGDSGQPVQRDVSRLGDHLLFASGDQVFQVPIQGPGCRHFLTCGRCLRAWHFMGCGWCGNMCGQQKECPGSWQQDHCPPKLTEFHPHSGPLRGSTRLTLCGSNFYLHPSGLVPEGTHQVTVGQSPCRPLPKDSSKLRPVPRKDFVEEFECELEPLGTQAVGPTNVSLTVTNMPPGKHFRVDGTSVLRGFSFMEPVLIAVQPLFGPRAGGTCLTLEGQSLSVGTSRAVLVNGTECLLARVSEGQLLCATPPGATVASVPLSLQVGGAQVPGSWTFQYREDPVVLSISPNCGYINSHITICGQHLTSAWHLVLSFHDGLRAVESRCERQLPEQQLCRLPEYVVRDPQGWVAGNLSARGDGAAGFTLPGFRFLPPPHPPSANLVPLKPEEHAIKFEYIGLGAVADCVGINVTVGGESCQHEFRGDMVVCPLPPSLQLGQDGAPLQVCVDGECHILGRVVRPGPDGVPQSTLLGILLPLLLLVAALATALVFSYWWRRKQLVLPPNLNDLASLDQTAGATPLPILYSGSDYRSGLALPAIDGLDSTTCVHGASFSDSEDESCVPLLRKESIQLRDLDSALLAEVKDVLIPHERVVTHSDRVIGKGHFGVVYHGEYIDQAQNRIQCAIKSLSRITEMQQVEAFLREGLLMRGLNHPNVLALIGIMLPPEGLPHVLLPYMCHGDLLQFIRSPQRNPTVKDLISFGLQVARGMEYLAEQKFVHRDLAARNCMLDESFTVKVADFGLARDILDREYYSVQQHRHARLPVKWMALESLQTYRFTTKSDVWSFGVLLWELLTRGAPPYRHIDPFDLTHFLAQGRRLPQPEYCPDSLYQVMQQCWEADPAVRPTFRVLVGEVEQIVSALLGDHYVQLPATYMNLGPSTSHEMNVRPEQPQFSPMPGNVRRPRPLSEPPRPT
Test: radiometric filter-binding kinase assay, Kinase HotSpot
Settings: compound 0.5 µM; ATP 10 µM
Measurement Kind: residual activity (%)

>>> value_measured("Oc1ccc(Nc2nc(-c3ccc(Cl)cc3)cs2)cc1")
92.5
>>> value_measured("O=C(O)/C=C/c1cc(Br)c(Br)c(Br)c1Br")
87.1
>>> value_measured("CC(=O)O/N=C1\\C(=C2\\C(=O)Nc3cc(Br)ccc32)Nc2ccccc21")
92.8

* * *

Target: CSNK1G2 (human) (UniProt P78368)
Sequence (P78368 whole entry, looked up): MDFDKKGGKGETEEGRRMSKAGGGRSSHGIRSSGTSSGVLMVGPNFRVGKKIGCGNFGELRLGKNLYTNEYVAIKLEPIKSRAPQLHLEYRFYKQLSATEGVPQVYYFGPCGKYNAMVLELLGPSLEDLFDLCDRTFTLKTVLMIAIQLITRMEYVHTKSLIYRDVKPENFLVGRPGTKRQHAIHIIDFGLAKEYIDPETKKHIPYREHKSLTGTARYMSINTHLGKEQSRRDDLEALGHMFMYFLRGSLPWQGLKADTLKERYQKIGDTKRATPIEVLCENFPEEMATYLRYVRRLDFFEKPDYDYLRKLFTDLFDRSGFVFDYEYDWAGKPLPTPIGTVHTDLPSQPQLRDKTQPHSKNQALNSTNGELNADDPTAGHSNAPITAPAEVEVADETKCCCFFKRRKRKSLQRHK
Assay: radiometric filter-binding kinase assay, Kinase HotSpot
Settings: compound 0.5 µM; ATP 10 µM
Measurement Kind: residual activity (%)

>>> value_measured("Oc1ccc(Nc2nc(-c3ccc(Cl)cc3)cs2)cc1")
91.8
>>> value_measured("CCn1cnc2c(Nc3cccc(Cl)c3)nc(N[C@@H]3CCCC[C@@H]3N)nc21")
69.5
>>> value_measured("Cn1cnc2cc3c(Nc4cccc(Br)c4)ncnc3cc21")
89.2

* * *

Molecular target: UniProt Q02750
Sequence (Q02750 whole entry, looked up): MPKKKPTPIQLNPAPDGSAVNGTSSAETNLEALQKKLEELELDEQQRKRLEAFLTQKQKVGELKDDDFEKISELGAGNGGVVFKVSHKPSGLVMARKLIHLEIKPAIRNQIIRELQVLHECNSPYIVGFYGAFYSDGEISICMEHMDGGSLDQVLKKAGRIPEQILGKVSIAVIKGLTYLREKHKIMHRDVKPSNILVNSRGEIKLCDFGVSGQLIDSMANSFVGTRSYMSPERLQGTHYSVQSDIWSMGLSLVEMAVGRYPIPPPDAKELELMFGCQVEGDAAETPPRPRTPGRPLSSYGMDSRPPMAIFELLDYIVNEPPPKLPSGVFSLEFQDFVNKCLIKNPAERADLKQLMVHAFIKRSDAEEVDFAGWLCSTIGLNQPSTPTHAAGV
Experiment: radiometric filter-binding kinase assay, Kinase HotSpot
Conditions: compound 0.5 µM; ATP 10 µM
residual activity by entry:
Measurement Kind: residual activity (%)

>>> value_measured("CCN(CC)CCCCN1c2ccccc2Oc2ccc(Cl)cc21")
98.1
>>> value_measured("O=C1Nc2ccccc2/C1=C1/Nc2ccccc2/C1=N\\OCCC(O)CO (configuration not stated)")
99.7
>>> value_measured("COc1ccc(OC)c2c(=S)c3ccccc3[nH]c12")
91.7
>>> value_measured("CC(C)[C@H](CO)Nc1nc(Nc2cc(N)cc(Cl)c2)c2ncn(C(C)C)c2n1")
91.3
>>> value_measured("O=C1NC(=O)C(c2cn(CCCO)c3ncccc23)=C1c1cnccn1")
106
>>> value_measured("O=C1NC(=O)/C(=C\\c2ccc3nccnc3c2)S1")
89.5
>>> value_measured("O=C(Nc1cccc(Nc2cc(Nc3cccc(C(F)(F)F)c3)ncn2)c1)C1CC1")
98.9

* * *

residual activity by entry:
Biological target: BMX (human)
Assay: radiometric filter-binding kinase assay, Kinase HotSpot
Conditions: compound 0.5 µM; ATP 10 µM
Measurement Kind: residual activity (%)

>>> value_measured("COc1cc2ncnc(N3CCN(C(=O)Nc4ccc(Oc5ccccc5)cc4)CC3)c2cc1OC")
90.9
>>> value_measured("Cn1sc(=O)n(Cc2ccccc2)c1=O")
91.6
>>> value_measured("CN([C@@H](Cc1ccc(OS(=O)(=O)c2cccc3cnccc23)cc1)C(=O)N1CCN(c2ccccc2)CC1)S(=O)(=O)c1cccc2cnccc12")
97.4
>>> value_measured("CCN(CC)CCCCN1c2ccccc2Oc2ccc(Cl)cc21")
104
>>> value_measured("Cc1nc2cc3nc(-c4cccs4)cnc3cc2n1C")
117
>>> value_measured("COc1ccc(CNC(=O)Nc2ncc([N+](=O)[O-])s2)cc1")
90.8
>>> value_measured("CC(C)c1nn(-c2c(Cl)cccc2Cl)c2nc(Cc3ccc(OCCO)cc3)nc(O)c12")
104
>>> value_measured("O=C(O)/C=C/c1cc(Br)c(Br)c(Br)c1Br")
97
>>> value_measured("O=C1Nc2ccccc2/C1=C1/Nc2ccccc2/C1=N\\OCCC(O)CO (configuration not stated)")
40.2
>>> value_measured("O=C1NC(=O)C(c2cn(CCCO)c3ncccc23)=C1c1cnccn1")
97.8
>>> value_measured("CCn1cnc2c(Nc3cccc(Cl)c3)nc(N[C@@H]3CCCC[C@@H]3N)nc21")
90.7
>>> value_measured("CN(C)C[C@H]1CCn2c(c(C3=C(c4cn(C)c5ccccc45)C(=O)NC3=O)c3ccccc32)C1")
91.7
>>> value_measured("CC(C)[C@H](CO)Nc1nc(Nc2cc(N)cc(Cl)c2)c2ncn(C(C)C)c2n1")
81.9
>>> value_measured("O=C1NC(=O)/C(=C\\c2ccc3nccnc3c2)S1")
98.6
>>> value_measured("Nc1nnc2[nH]c3ccccc3nc1-2")
99.5
>>> value_measured("O=C1Cc2c([nH]c3ccc(Br)cc23)-c2ccccc2N1")
99.6
>>> value_measured("O=C1Nc2ccccc2/C1=C1\\Nc2ccccc2\\C1=N/O")
80.1

The origin of these recorded values is the kinase profiling compilation of Christmann-Franck et al. (2016).
